- Tested on: p38-delta
- condition.label: concentration: 1 μM, replicates: in singlicate; n = 1;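 further: KINOMEscan kinase panel screen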
Kindly apply the following: Criterion met if %Inh is less than 20%, Criterion not met in every other case.

Solved cases below.
>  <compound>
Cc1cccc(-c2nc(Nc3ccc4ncsc4c3)c3ccccc3n2)n1

>  <target.entity>
p38-delta

>  <group>
Criterion met

$$$$
>  <compound>
N#Cc1c(N2CCOCC2)sc(-c2ccn[nH]2)c1-c1ccc(Cl)cc1

>  <target.entity>
p38-delta

>  <group>
Criterion met

$$$$
>  <compound>
Cl.Oc1cccc(Nc2ccnc3cc(-c4ccncc4)ccc23)c1

>  <target.entity>
p38-delta

>  <group>
Criterion not met

$$$$
>  <compound>
Cc1cccc(-c2nc(-c3ccc(S(C)(=O)=O)cc3)sc2-c2ccncc2)c1

>  <target.entity>
p38-delta

>  <group>
Criterion met

$$$$
>  <compound>
O=c1cc(N2CCOCC2)nc2n(Cc3cccc(F)c3)ccn12

>  <target.entity>
p38-delta

>  <group>
Criterion not met

$$$$

Inquiry: %Inh under 20%? Item: Cc1nnc(-c2ccc3occ(-c4ccc(C(C)O)cc4)c3c2)o1 (stereo not drawn)
Reply text: Criterion met

Inquiry: %Inh under 20%? Item: "O=C(NCCNc1ccnc(Nc2ccc(F)cc2)n1)Nc1ccccc1F"
Reply text: Criterion not met

Inquiry: %Inh under 20%? Item: "[2H]C([2H])(c1cccc(C(F)(F)F)c1C)n1ccn2c(=O)nc(N3CCOCC3)cc12"
Reply text: Criterion not met

* * *

- System: PRKD1
- condition.label: concentration: 1 μM, replicates: in singlicate; n = 1
readout.kind: %Inh (%)
Report the figure in % without appending any unit label.

# annotated cases, reported %Inh shown
>  <molecule>
COc1cc2c(cc1OCCN1CCN(C)CC1)ncc1c3ccc(C#N)cc3[nH]c21

>  <readout.kind>
%Inh

>  <measured>
0

$$$$
>  <molecule>
Cc1nnc(-c2ccc(C)c(-c3ccc(C(=O)Nc4ccc(NS(C)(=O)=O)cc4)cc3)c2)o1

>  <readout.kind>
%Inh

>  <measured>
0

$$$$
>  <molecule>
COCCNC(=O)c1ccc(-c2cc(C(=O)NC3CC3)cc(F)c2C)cc1

>  <readout.kind>
%Inh

>  <measured>
2

$$$$
>  <molecule>
O=c1cc(N2CCOCC2)nc2n(Cc3cccc(F)c3)ccn12

>  <readout.kind>
%Inh

>  <measured>
6

$$$$
>  <molecule>
O=C(NCCNc1ccnc(Nc2ccc(F)cc2)n1)Nc1ccccc1F

>  <readout.kind>
%Inh

>  <measured>
0

$$$$
>  <molecule>
O=c1cc(N2CCOCC2)nc2n(Cc3cccc4ccccc34)ccn12

>  <readout.kind>
%Inh

>  <measured>
0

$$$$

Sample "CN1c2ccc(NCc3ccc(F)cc3)cc2-c2c(cnn2C)S1(=O)=O" ; %Inh observed: 13

Sample "COc1cc2ncn(-c3cc(OCc4sccc4Cl)c(C(N)=O)s3)c2cc1OC" ; %Inh observed: 0

Sample "Nc1nc(-c2ccc3c(N)n[nH]c3c2)cc(N2CCCC2)n1" ; %Inh observed: 0

Sample "CC(=O)Nc1ccc(COc2ccc(Nc3ccnc4cc(-c5ccccn5)ccc34)cc2)cc1.Cl" ; %Inh observed: 18

Sample "NS(=O)(=O)c1cccc(-c2ccc3ncc(N4CCOCC4)nc3c2)c1" ; %Inh observed: 0

* * *

- Tested on: YSK4
- Construct: gene MAP3K19
- condition.label: concentration: 1 μM, replicates: in singlicate; n = 1
Recorded %Inh for the following compounds
Report the figure in % without appending any unit label.

>  <compound>
CN1c2ccc(NCc3ccc(F)cc3)cc2-c2c(cnn2C)S1(=O)=O

>  <unit.name>
%

>  <%Inh>
8

$$$$

API: the following record is the query input.
Sample "N#Cc1c(N2CCOCC2)sc(-c2ccn[nH]2)c1-c1ccc(Cl)cc1" ; %Inh observed: 28

* * *

Recorded %Inh for the following compounds
- System: FGR
- condition.label: concentration: 1 μM, replicates: in singlicate; n = 1
Report the figure in % without appending any unit label.

>  <compound>
COc1cc2ncn(-c3cc(OCc4sccc4Cl)c(C(N)=O)s3)c2cc1OC

>  <measured>
9

$$$$
>  <compound>
COc1ccc(Nc2ncc(C#N)c(Nc3ccccc3C(N)=O)n2)cc1N1CCN(C)CC1.Cl

>  <measured>
96.5

$$$$

Sample "Cc1ccc(C(=O)NCC(N)=O)cc1-n1c(C)cc(OCc2ccc(F)cc2F)c(Br)c1=O" ; %Inh observed: 25

Sample "O=C1NC(=O)C(N2CCc3ccccc32)=C1c1cccc(Cl)c1" ; %Inh observed: 22

Sample "O=c1cc(N2CCOCC2)nc2n(Cc3cccc(Cl)c3Cl)c(C3CC3)nn12" ; %Inh observed: 9

Sample "NS(=O)(=O)c1cccc(-c2ccc3nccc(-c4cccc(S(N)(=O)=O)c4)c3c2)c1" ; %Inh observed: 0

Sample "NS(=O)(=O)c1cccc(-c2ccc3ncc(N4CCOCC4)nc3c2)c1" ; %Inh observed: 27

Sample COc1ccc(CNC(=O)NC2CCN(c3ccnc(Nc4ccc(OC)cc4)n3)C2)cc1 (centres unmarked) ; %Inh observed: 26

* * *

- Test system: PAK2
- condition.label: concentration: 1 μM, replicates: in singlicate; n = 1
Recorded %Inh for the following compounds
Report the figure in % without appending any unit label.

# annotated cases, reported %Inh shown
>  <compound>
Cc1c(Cn2c(C)nn3c(=O)cc(N4CCOC(C)C4)nc23)cccc1C(F)(F)F (stereo not shown)

>  <unit.name>
%

>  <%Inh>
0

$$$$
>  <compound>
Cc1nnc(-c2ccc3occ(-c4ccc(C(C)O)cc4)c3c2)o1 (stereo not shown)

>  <unit.name>
%

>  <%Inh>
16

$$$$
>  <compound>
NCC(NC(=O)c1cc(-c2cn[nH]c2)c(-c2ccnc3[nH]ccc23)s1)c1ccccc1.O=C(O)C(F)(F)F.O=C(O)C(F)(F)F (stereo not shown)

>  <unit.name>
%

>  <%Inh>
32

$$$$

Sample "CSc1ccc(-c2cc3ncnc(SCC(=O)O)c3s2)cc1" ; %Inh observed: 0

Sample "[2H]C([2H])(c1cccc(C(F)(F)F)c1C)n1ccn2c(=O)nc(N3CCOCC3)cc12" ; %Inh observed: 12

Sample "CC(C)Oc1ccc2c(-c3ccnc(Nc4ccc(N5CCN(C)CC5)cc4)n3)cnn2n1" ; %Inh observed: 53

Sample "Cn1ccc2ncnc(Oc3ccc(NC(=O)Nc4ccncc4)c(Cl)c3)c21" ; %Inh observed: 2

Sample "O=c1cc(N2CCOCC2)nc2n(Cc3cccc(Cl)c3Cl)c(C3CC3)nn12" ; %Inh observed: 0

* * *

Recorded %Inh for the following compounds
- Test system: TIE1
- condition.label: concentration: 1 μM, replicates: in singlicate; n = 1
Report the figure in % without appending any unit label.

>  <chemical.structure>
CCc1nc(-c2cccc(C)c2)c(-c2ccnc(NCc3ccccc3)c2)s1

>  <unit.name>
%

>  <measured>
13

$$$$
>  <chemical.structure>
CCCCCc1nc2c(N)ncnc2n1CCCCC

>  <unit.name>
%

>  <measured>
0

$$$$
>  <chemical.structure>
Cc1cccc(Cn2ccn3c(=O)cc(N4CCOCC4)nc23)c1

>  <unit.name>
%

>  <measured>
0

$$$$
>  <chemical.structure>
Nc1nccc(-c2c(-c3ccc(F)cc3)ncn2C2CCN(CC(F)(F)F)CC2)n1

>  <unit.name>
%

>  <measured>
25

$$$$
>  <chemical.structure>
CCn1cnc2c(N)ncnc21

>  <unit.name>
%

>  <measured>
6

$$$$

Sample "Cl.Nc1ncnc2occ(-c3ccc(NC(=O)Nc4cc(C(F)(F)F)ccc4F)cc3)c12" ; %Inh observed: 98.7

Sample "Cn1ccc2ncnc(Oc3ccc(NC(=O)Nc4ccncc4)c(Cl)c3)c21" ; %Inh observed: 0

Sample "Cc1c2ccc(N(C)c3ccnc(Nc4cccc(S(N)(=O)=O)c4)n3)cc2nn1Cc1ccccc1.Cl.Cl" ; %Inh observed: 92.2

Sample "O=C(NCCNc1ccnc(Nc2ccc(F)cc2)n1)c1cc2ccccc2s1" ; %Inh observed: 0

Sample "CN1c2ccc(NCc3ccc(F)cc3)cc2-c2c(cnn2C)S1(=O)=O" ; %Inh observed: 8

Sample "C[C@@H](Oc1cc(-n2cnc3ccc(NC(=O)NC(C)(C)C)cc32)sc1C(N)=O)c1ccccc1Cl" ; %Inh observed: 3

Sample "O=C(NOCC1CC1)c1ccc(F)c(F)c1Nc1ccc(I)cc1Cl" ; %Inh observed: 0

Sample "c1ccc(-c2n[nH]cc2-c2ccnc3ccccc23)nc1" ; %Inh observed: 3

* * *

Recorded %Inh for the following molecules
- Tested on: PLK3
- condition.label: concentration: 1 μM, replicates: in singlicate; n = 1
Report the figure in % without appending any unit label.

>  <molecule>
Fc1ccc(-c2ncn(CCCN3CCOCC3)c2-c2ccccn2)cc1

>  <%Inh / %>
0

$$$$

Sample "CN(C(=O)c1ccc(-c2cc(-c3c[nH]nc3-c3ccccn3)ccn2)cc1)C1CCOCC1" ; %Inh observed: 0

Sample COc1cc(Nc2nccc(N3CCC(NC(=O)c4cccc(NC(C)=O)c4)C3)n2)cc(OC)c1OC (stereo not shown) ; %Inh observed: 3

Sample "O=C(NCCNc1ccnc(Nc2ccc(F)cc2)n1)c1cc2ccccc2s1" ; %Inh observed: 0
